Test system: MCF7
Protocol: NCI tumour cell line growth inhibition, 48 h
Activity calls are given as the source filed them. No stated cut-off is given here; in the data, active = GI50 up to about 1.1 µM and inactive = higher.
Measurement Label: GI50

Query: What value of GI50 has been reported for the following molecule? O=P(c1ccccc1)(c1ccccc1)N1O[C@@H](c2ccccc2)C=C[C@H]1c1ccccc1
Reply: 3.4 µM (inactive)

Query: Entry CC(C)c1c(O[Si](C(C)C)(C(C)C)C(C)C)cc2c(c1O)CC[C@H]1C(C)(C)CCC[C@]21C : reported GI50 = ?
Reply: > 100 µM (inactive)

Query: GET /values?readout=GI50&item= COC(=O)C#Cc1ccc([N+](=O)[O-])cc1
Reply: 1.91 µM (inactive)

Query: Please give the measured GI50 for this molecule: COc1cccc(C23CCCC(C2)N(C)CC3OC(=O)c2ccccc2)c1OC (stereo not given)
Reply: 27.4 µM (inactive)

Query: Form field: reported GI50 of N=C1CCCC1C(=S)SCCC(N)=O (stereo not given)
Reply: > 100 µM (inactive)

* * *

Provide the reported GI50 of each item.
Tested on: DLD-1
Protocol: NCI tumour cell line growth inhibition, 48 h
Calls of active or inactive are those of the source. Cut-off read from the data, not from the text of the source: active = GI50 up to about 1.1 µM and inactive = higher.

Query: Entry CC1OC(CO)(n2cnc3c(N)ncnc32)C(O)C1O (centres undefined) , system DLD-1: what GI50 was measured?
Reply: > 100 µM (inactive)

Query: Request body: readout GI50, system DLD-1, query O=C(CSC(=S)N1CCCCC1)Nc1nc2c(s1)CCCC2 . Return the value.
Reply: 26.9 µM (inactive)

Query: Lab note: need GI50 with DLD-1 for entry [O-][S+]1[C@H](c2ccccc2)c2c(-c3ccccc3)sc(-c3ccccc3)c2[C@@H]1c1ccccc1 (some centres undefined) , please look it up.
Reply: 33 µM (inactive)

Query: So what GI50 did C[N+](C)(C)CC(=O)N/N=c1\cc(C(=O)Nc2ccc(N=O)cc2C#N)oc2cc(O)ccc12 get with DLD-1?
Reply: > 100 µM (inactive)

Query: Identify the measured GI50 of NC1=C(Br)C(=O)c2ncccc2C1=O for DLD-1.
Reply: 0.607 µM (active)

Query: Look up GI50 with DLD-1 for this compound: CNC(=O)OCc1cc2ccncc2c2c1[nH]c1ccccc12
Reply: 5.89 µM (inactive)

Query: Notebook: pull reported GI50 for DLD-1, entry COc1c(C)cc2c(c1O)C1NC(C2)[C@H](O)N2C3COC(=O)[C@@]4(CS[C@@H](c5c(OC(C)=O)c(C)c6c(c53)OCO6)C12)NCCC1=C4NC2C=CC=CC12 (some centres undefined)
Reply: < 0.01 µM (active)

Query: DLD-1 / GI50 / C=C(CN(C)C)C(=O)c1ccc(OC2OC(COC(C)=O)C(OC(C)=O)C(OC(C)=O)C2OC(C)=O)cc1 (centres undefined) : value?
Reply: 0.912 µM (active)

Query: Give GI50 (DLD-1) of the following compound: C=CCC1(CN(C)C)CC/C(=C\c2ccc(OC)cc2)C1=O (centres undefined)
Reply: 34.2 µM (inactive)

* * *

System: U-251
Protocol: NCI tumour cell line growth inhibition, 48 h
Calls of active or inactive are those of the source. Cut-off read from the data, not from the text of the source: active = GI50 up to about 1.1 µM and inactive = higher.
Measurement Label: GI50

Query: Which measured GI50 value corresponds to CCOC(=O)C12C(=O)CCN1CCc1ccccc1C2C (configuration not stated) ?
Reply: > 100 µM (inactive)

Query: Item under review: CC(C)OC(=O)C1=C2c3ncccc3C(=O)N2[C@@H](Cl)[C@@H](Cl)[C@@H]1Cl . Reported GI50?
Reply: > 100 µM (inactive)

Query: Record request: GI50 value, item C=C(/C=C/C=C(\C)CCC=C(C)C)[C@@H]1CC[C@]2([C@H](CCCO)/C(=C(/C)C=O)CC[C@]2(C)O)[C@@H]1O
Reply: 14.9 µM (inactive)

Query: What GI50 value was documented for this compound, C[N+](C)=c1nc(N2CCOCC2)ss1 ?
Reply: > 100 µM (inactive)

Query: Param item = N#Cc1c(-c2ccccc2)c(/C=N/c2cccc(C(F)(F)F)c2)c(=O)n2c1[nH]c1ccccc12 ; retrieve measured GI50.
Reply: 45 µM (inactive)

Query: // returns reported GI50 for input COc1ccc(C(c2c(O)c3ccccc3n(C)c2=O)c2c(O)c3ccccc3n(C)c2=O)cc1
Reply: 19.1 µM (inactive)

Query: Any idea what its GI50 is? The compound is O=C(/C=C/c1c(O)ccc2ccccc12)c1ccc([N+](=O)[O-])cc1
Reply: 46.5 µM (inactive)
